B1: Chromodomain-helicase-DNA-binding protein 4, residues 444 to 496; numbered along this chain, Q14839 (parent)
chain: EDDHHMEFCRVCKDGGELLCCDTCPSSYHIHCLNPPLPEIPNGEWLCPRCTCP

- Variants of: B1
- Assay Procedure: abundance fitness (aPCA) (normalised: wild type 0, dead -1); higher = more abundant; growth selection in yeast, the domain comes from the species named
- Assay Context: Homo sapiens
Value Kind: abundance fitness
Note: the reply should be a number with no unit written.

Mutation Code: G15L
abundance fitness: -0.486
--
Mutation Code: W45D
abundance fitness: -0.473
--
Mutation Code: I30Y
abundance fitness: -0.102
--
Mutation Code: P41M
abundance fitness: -0.187
--
Mutation Code: L18R
abundance fitness: -0.394

Kindly consider the entry below.
*Q* Request the reported abundance fitness associated with C52S
*A* -0.002
